Tested on: 60 cancer cell lines (NCI 60 cancer cell line series)
Assay: NCI-DTP in vitro cancer screen, sulforhodamine B (SRB) growth inhibition, 48 hour exposure
Assay type: cell-based, human
Details: Renal 786-0 CL9018
Counter-ions that a name gives are not always drawn.
Reported Endpoint: sensitivity classification Low(1)/Medium(2)/High(3)
Give the figure only, with no unit attached.

Known results for compounds:
{"Compound": "CC[C@]1(O)C[C@@H]2CN(CCc3c([nH]c4ccccc34)[C@@](C(=O)OC)(c3cc4c(cc3OC)N(C)[C@H]3[C@@](O)(C(=O)OC)[C@H](OC(C)=O)[C@]5(CC)C=CCN6CC[C@]43[C@@H]65)C2)C1 [Vinblastine sulfate]", "Recorded Measurement": 2}
{"Compound": "COc1cc([C@@H]2c3cc4c(cc3[C@@H](O[C@@H]3O[C@@H]5CO[C@@H](C)O[C@H]5[C@H](O)[C@H]3O)[C@H]3COC(=O)[C@H]23)OCO4)cc(OC)c1O [Etoposide]", "Recorded Measurement": 2}

Field: next compound
Ask: Please supply the value of reported sensitivity classification Low(1)/Medium(2)/High(3) for the item N[C@@H](Cc1ccc(N(CCCl)CCCl)cc1)C(=O)O
Reply: 2
